mass density reference
# condition: 298.15 K; 101.33 kPa; Liquid; Vibrating tube method
assay_readout: mass density (kg/m3)

C1COCCO1	1027.87
C1COCO1	1058.76
C1CCOCC1 [tetrahydropyran]	879.16
ClCCCl	1245.68

These measurements were taken from the NIST ThermoML archive (doi:10.1021/acs.jced.7b01091).
